molecular target: CVB3 3C^pro (Coxsackievirus B3, UniProt P03313)
Sequence (P03313 1541-1723): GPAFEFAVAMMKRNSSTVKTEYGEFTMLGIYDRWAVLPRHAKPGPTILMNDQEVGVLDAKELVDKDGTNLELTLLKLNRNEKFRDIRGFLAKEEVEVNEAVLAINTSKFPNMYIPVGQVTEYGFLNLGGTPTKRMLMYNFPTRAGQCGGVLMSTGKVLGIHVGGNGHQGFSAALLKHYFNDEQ
measurement kind: IC50
Give your result as the value with the unit written after it.

Request: Reported IC50 for NC(CO)C(=O)N/N=C\c1ccc(O)c(O)c1O (stereo not shown) : what is it?
Result: 2.72 µM
